- Test system: Escherichia coli TOP10
- assay-details: shrunken log2 fold change of peptide-encoding DNA abundance (4.5 h post-induction vs induction); higher = less antimicrobial activity (less host growth inhibition)
- condition-parameters: time post-induction: 4.5 h; library: site-saturation at positions 5, 18, 19, 20
Readings of shrunken log2 fold change for the listed sequences
// no unit, no text: just the number

Example sequences with recorded shrunken log2 fold change:
RRIRDRPPRLPRPRPRPFMWPRP | -0.102
RRIRNRPPRLPRPRPRPKESPRP | 0.149
RRIRVRPPRLPRPRPRPWVRPRP | 0.0573
RRIRTRPPRLPRPRPRPCEEPRP | 0.0871
RRIRARPPRLPRPRPRPYPAPRP | -0.146

Request: State its shrunken log2 fold change on Escherichia coli TOP10: `RRIRMRPPRLPRPRPRPDCFPRP`
Result: 0.0619

Request: Queued: `RRIRNRPPRLPRPRPRPENYPRP`
Result: -0.553

Request: Queued: `RRIRFRPPRLPRPRPRPEIGPRP`
Result: -0.0537

Request: Queued: `RRIRCRPPRLPRPRPRPNLSPRP`
Result: -0.431

Request: Queued: `RRIRTRPPRLPRPRPRPYTSPRP`
Result: -0.00661

###

- System: Escherichia coli TOP10
- assay-details: shrunken log2 fold change of peptide-encoding DNA abundance (4.5 h post-induction vs induction); higher = less antimicrobial activity (less host growth inhibition)
- condition-parameters: time post-induction: 4.5 h; library: site-saturation at positions 5, 18, 19, 20
Classify as follows. Reported shrunken log2 fold change greater than or equal to -0.06: Yes. Reported shrunken log2 fold change below: No.

RRIRNRPPRLPRPRPRPHMAPRP | No
RRIRPRPPRLPRPRPRPNEMPRP | Yes
RRIRIRPPRLPRPRPRPKGVPRP | Yes

Request: Quick check, shrunken log2 fold change >= -0.06? `RRIRRRPPRLPRPRPRPPMVPRP`
Result: Yes

Request: Queued: `RRIRCRPPRLPRPRPRPWMTPRP`
Result: No

Request: Queued: `RRIRLRPPRLPRPRPRPGDAPRP`
Result: No

Request: Queued: `RRIRDRPPRLPRPRPRPTSEPRP`
Result: Yes

Request: Queued: `RRIRFRPPRLPRPRPRPAKPPRP`
Result: Yes

Request: Queued: `RRIRIRPPRLPRPRPRPQTRPRP`
Result: No

Request: Queued: `RRIRIRPPRLPRPRPRPKNEPRP`
Result: No

###

- System: Escherichia coli TOP10
- assay-details: shrunken log2 fold change of peptide-encoding DNA abundance (4.5 h post-induction vs induction); higher = less antimicrobial activity (less host growth inhibition)
- condition-parameters: time post-induction: 4.5 h; library: site-saturation at positions 5, 18, 19, 20
property: shrunken log2 fold change
// no unit, no text: just the number

Example sequences with recorded shrunken log2 fold change:
RRIRSRPPRLPRPRPRPENGPRP | 0.0751
RRIRMRPPRLPRPRPRPYFVPRP | 0.0021
RRIRIRPPRLPRPRPRPSATPRP | -0.17
RRIRNRPPRLPRPRPRPILYPRP | -0.267

Request: State its shrunken log2 fold change on Escherichia coli TOP10: `RRIRARPPRLPRPRPRPTIFPRP`
Result: 0.377

Request: Queued: `RRIRHRPPRLPRPRPRPKGWPRP`
Result: 0.103

Request: Queued: `RRIRGRPPRLPRPRPRPCPCPRP`
Result: -0.0469

Request: Queued: `RRIRARPPRLPRPRPRPITYPRP`
Result: -0.0353

Request: Queued: `RRIRNRPPRLPRPRPRPGMRPRP`
Result: 0.504

Request: Queued: `RRIRLRPPRLPRPRPRPTCNPRP`
Result: -0.4

###

- System: Escherichia coli TOP10
- assay-details: shrunken log2 fold change of peptide-encoding DNA abundance (4.5 h post-induction vs induction); higher = less antimicrobial activity (less host growth inhibition)
- condition-parameters: time post-induction: 4.5 h; library: site-saturation at positions 5, 18, 19, 20
property: shrunken log2 fold change
// no unit, no text: just the number

Example sequences with recorded shrunken log2 fold change:
RRIRARPPRLPRPRPRPVGNPRP | 0.0787
RRIRLRPPRLPRPRPRPFIPPRP | -0.355
RRIRVRPPRLPRPRPRPHSTPRP | -0.418
RRIRSRPPRLPRPRPRPDYGPRP | -0.0953
RRIRERPPRLPRPRPRPQITPRP | -0.778

Request: May I ask what shrunken log2 fold change has been recorded for `RRIRLRPPRLPRPRPRPVHAPRP` ?
Result: 0.178

Request: Queued: `RRIRHRPPRLPRPRPRPGDLPRP`
Result: 0.163

Request: Queued: `RRIRHRPPRLPRPRPRPHRKPRP`
Result: -0.351

Request: Queued: `RRIRSRPPRLPRPRPRPMTQPRP`
Result: -0.116

Request: Queued: `RRIRPRPPRLPRPRPRPFNCPRP`
Result: -0.537

Request: Queued: `RRIRVRPPRLPRPRPRPEEGPRP`
Result: -0.01

Request: Queued: `RRIRIRPPRLPRPRPRPVELPRP`
Result: -0.0129

Request: Queued: `RRIRHRPPRLPRPRPRPYIEPRP`
Result: -0.68

Request: Queued: `RRIRERPPRLPRPRPRPNNQPRP`
Result: -0.59

Request: Queued: `RRIRNRPPRLPRPRPRPDCQPRP`
Result: 0.0461

Request: Queued: `RRIRCRPPRLPRPRPRPCLCPRP`
Result: -0.185

Request: Queued: `RRIRDRPPRLPRPRPRPQACPRP`
Result: 0.303

Request: Queued: `RRIRARPPRLPRPRPRPETSPRP`
Result: 0.912

###

- Test system: Escherichia coli TOP10
- assay-details: shrunken log2 fold change of peptide-encoding DNA abundance (4.5 h post-induction vs induction); higher = less antimicrobial activity (less host growth inhibition)
- condition-parameters: time post-induction: 4.5 h; library: site-saturation at positions 5, 18, 19, 20
Classify as follows. Reported shrunken log2 fold change greater than or equal to -0.1: t. Reported shrunken log2 fold change below: f.

These solved cases illustrate the format of a correct answer.
RRIRKRPPRLPRPRPRPWILPRP | f
RRIRWRPPRLPRPRPRPNCCPRP | f
RRIRWRPPRLPRPRPRPTNAPRP | t
RRIRWRPPRLPRPRPRPASVPRP | t
RRIRLRPPRLPRPRPRPQQIPRP | f
RRIRVRPPRLPRPRPRPINNPRP | f
RRIRERPPRLPRPRPRPDIRPRP | t
RRIRYRPPRLPRPRPRPSLCPRP | f

Request: Quick check, shrunken log2 fold change >= -0.1? `RRIRLRPPRLPRPRPRPHCMPRP`
Result: f

Request: Queued: `RRIRNRPPRLPRPRPRPFEIPRP`
Result: t

Request: Queued: `RRIRDRPPRLPRPRPRPPMLPRP`
Result: t

Request: Queued: `RRIRDRPPRLPRPRPRPGGIPRP`
Result: t

Request: Queued: `RRIRTRPPRLPRPRPRPSHWPRP`
Result: f

###

- Test system: Escherichia coli TOP10
- assay-details: shrunken log2 fold change of peptide-encoding DNA abundance (4.5 h post-induction vs induction); higher = less antimicrobial activity (less host growth inhibition)
- condition-parameters: time post-induction: 4.5 h; library: site-saturation at positions 5, 18, 19, 20
Readings of shrunken log2 fold change for the listed sequences
// no unit, no text: just the number

Example sequences with recorded shrunken log2 fold change:
RRIRARPPRLPRPRPRPIKPPRP | 0.0335
RRIRQRPPRLPRPRPRPWLGPRP | -0.0417
RRIRWRPPRLPRPRPRPIVEPRP | 0.127
RRIRLRPPRLPRPRPRPAPEPRP | 0.109
RRIRVRPPRLPRPRPRPRLEPRP | 0.138
RRIRLRPPRLPRPRPRPTSDPRP | 0.0874
RRIRWRPPRLPRPRPRPHSKPRP | 1.84
RRIRNRPPRLPRPRPRPIAVPRP | -0.0167

Request: May I ask what shrunken log2 fold change has been recorded for `RRIRHRPPRLPRPRPRPPYGPRP` ?
Result: 0.0267

Request: Queued: `RRIRFRPPRLPRPRPRPQRSPRP`
Result: -0.105

Request: Queued: `RRIRTRPPRLPRPRPRPNWHPRP`
Result: -0.0773

###

Readings of shrunken log2 fold change for the listed sequences
- Test system: Escherichia coli TOP10;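 also: peptides expressed intracellularly from a pBAD plasmid library in pooled LB shake-flask culture, induced with 0.3% L-arabinose, DNA abundance read by NGS, three biological replicates, DESeq2 with apeglm shrinkage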
- assay-details: shrunken log2 fold change of peptide-encoding DNA abundance (4.5 h post-induction vs induction); higher = less antimicrobial activity (less host growth inhibition)
- condition-parameters: time post-induction: 4.5 h; library: site-saturation at positions 5, 18, 19, 20

RRIRWRPPRLPRPRPRPYMEPRP | -0.101
RRIRLRPPRLPRPRPRPEMMPRP | 2.57
RRIRYRPPRLPRPRPRPSINPRP | -0.39
RRIRPRPPRLPRPRPRPHIQPRP | -0.312
RRIRIRPPRLPRPRPRPRVMPRP | 0.0377
RRIRERPPRLPRPRPRPNEIPRP | -0.181

Request: State its shrunken log2 fold change on Escherichia coli TOP10: `RRIRCRPPRLPRPRPRPDVMPRP`
Result: -0.101

Request: Queued: `RRIRCRPPRLPRPRPRPWKGPRP`
Result: -0.0267

Request: Queued: `RRIRDRPPRLPRPRPRPAGAPRP`
Result: 0.509

Request: Queued: `RRIRIRPPRLPRPRPRPAKLPRP`
Result: -0.302

Request: Queued: `RRIRMRPPRLPRPRPRPKCSPRP`
Result: -0.0186
